Just for reference, patent US4487770A is where these values come from.

experiment: Acute toxicity test in rats; conditions: rat, in vivo, sc, rats male, subcutaneous; read-out: LD50 (95% fiducial limits)
Metric name: LD50 (mg/kg)
Response body: numeric value in mg/kg, unit text excluded.

**Query** Name the reported LD50 value associated with the compound Nc1nc(N)nc(-c2cc(Cl)ccc2Cl)n1.O=C(O)/C=C\C(=O)O
**Result** 1600

----------
assay: Acute toxicity test in mice; type: in vivo; settings: mouse, in vivo, ip, mice female, intraperitoneal; read-out: LD50 (95% fiducial limits)
Metric name: LD50 (mg/kg)
Response body: numeric value in mg/kg, unit text excluded.

**Query** Name the reported LD50 value associated with the compound Nc1nc(N)nc(-c2cc(Cl)ccc2Cl)n1.O=C(O)/C=C\C(=O)O [Compound I]
**Result** 1010

----------
assay: Acute toxicity test in rats; details: rat, in vivo, ip, rats male, intraperitoneal; read-out: LD50 (95% fiducial limits)
Metric name: LD50 (mg/kg)
Response body: numeric value in mg/kg, unit text excluded.

**Query** Name the reported LD50 value associated with the compound Nc1nc(N)nc(-c2cc(Cl)ccc2Cl)n1.O=C(O)/C=C\C(=O)O
**Result** 802

----------
experiment: solubility in water; format: physicochemical; conditions: saturated solution in water
Metric name: solubility at 0.5 h (µM)
Response body: numeric value in µM, unit text excluded.

**Query** Name the reported solubility at 0.5 h value associated with the compound Nc1nc(N)nc(-c2cc(Cl)ccc2Cl)n1.O=C(O)/C=C\C(=O)O
**Result** 770

----------
experiment: Acute toxicity test in mice; assay type: in vivo; conditions: mouse, in vivo, po, mice male, oral; read-out: LD50 (95% fiducial limits)
Metric name: LD50 (mg/kg)
Response body: numeric value in mg/kg, unit text excluded.

**Query** Name the reported LD50 value associated with the compound Nc1nc(N)nc(-c2cc(Cl)ccc2Cl)n1.O=C(O)/C=C\C(=O)O [Compound I]
**Result** 6040

----------
assay: Acute toxicity test in mice; format: in vivo; settings: mouse, in vivo, ip, mice male, intraperitoneal; read-out: LD50 (95% fiducial limits)
Metric name: LD50 (mg/kg)
Response body: numeric value in mg/kg, unit text excluded.

**Query** Name the reported LD50 value associated with the molecule Nc1nc(N)nc(-c2cc(Cl)ccc2Cl)n1.O=C(O)/C=C\C(=O)O [Compound I]
**Result** 775

----------
assay: Acute toxicity test in rats; conditions: rat, in vivo, po, rats male, oral; read-out: LD50 (95% fiducial limits)
Metric name: LD50 (mg/kg)
Response body: numeric value in mg/kg, unit text excluded.

**Query** Name the reported LD50 value associated with the compound Nc1nc(N)nc(-c2cc(Cl)ccc2Cl)n1.O=C(O)/C=C\C(=O)O
**Result** 2900

----------
test: Acute toxicity test in rats; conditions: rat, in vivo, sc, rats female, subcutaneous; read-out: LD50 (95% fiducial limits)
Metric name: LD50 (mg/kg)
Response body: numeric value in mg/kg, unit text excluded.

**Query** Name the reported LD50 value associated with the compound Nc1nc(N)nc(-c2cc(Cl)ccc2Cl)n1.O=C(O)/C=C\C(=O)O
**Result** 1520
